Experiment: Toxicity test on endothelial cells EA.hy926, CCK-8 cell viability
Format: cell-based
Conditions: human, 1000~0.32 μmol/L, 5-fold dilution, read-out: IC50 of Test compound (cytotoxicity on EA.hy926 cells)
Readout: IC50 at 24 h (µM)
Answer format: numeric, µM implied, no suffix.

Task: Find the recorded IC50 at 24 h belonging to COc1nccc2c(S(=O)(=O)N3CCCNCC3CCC(C)C)cccc12 (racemic) [Compound YK1612] and report it.
Output: 89.6

Task: What measured IC50 at 24 h goes with C[C@@H]1CNCCCN1S(=O)(=O)c1cccc2c(O)nccc12 [Compound R-YK1601] ?
Output: 686

Task: Would you mind telling me what IC50 at 24 h value was observed for C[C@@H]1CNCCCN1S(=O)(=O)c1cccc2c(O)ncc(C3CC3)c12 [Compound R-YK1600-1] ?
Output: 188

Task: Please give the measured IC50 at 24 h for this molecule: COc1nccc2c(S(=O)(=O)N3CCCNC[C@H]3C)cccc12 [Compound R-YK1602]
Output: 433

Task: Need IC50 at 24 h, item O=S(=O)(c1cccc2cnccc12)N1CCCNC[C@H]1C1CC1 [Compound R-YK1608]
Output: 165

Task: Item CC(C)C1CNCCCN1S(=O)(=O)c1cccc2c(O)nccc12 (racemic) [Compound YK1609] has what recorded IC50 at 24 h?
Output: 228

Task: Can you share its IC50 at 24 h? I mean this molecule: CCCC[C@@H]1CNCCCN1S(=O)(=O)c1cccc2c(O)nccc12 [Compound R-YK1611]
Output: 284

Task: What value of IC50 at 24 h has been recorded for this entry: CC1CNCCCN1S(=O)(=O)c1cccc2c(O)nccc12 (racemic) [Compound YK1601]
Output: 496

Task: For the molecule shown here, CC1CNCCCN1S(=O)(=O)c1cccc2c(O)ncc(C3CC3)c12 (racemic) [Compound YK1600-1] , give the reported IC50 at 24 h.
Output: 97.8

Task: Look at this molecule and give its reported IC50 at 24 h. COc1nccc2c(S(=O)(=O)N3CCCNC[C@H]3CCC(C)C)cccc12 [Compound R-YK1612]
Output: 176

Task: Please look up its IC50 at 24 h: O=S(=O)(c1cccc2cnccc12)N1CCCNCC1C1CC1 (racemic) [Compound YK1608]
Output: 165

Task: For the molecule COc1ncc(C2CC2)c2c(S(=O)(=O)N3CCCNC[C@H]3C)cccc12 [Compound R-YK1600-2] , what IC50 at 24 h is on record?
Output: 145

Task: Entry CCc1cnc(O)c2cccc(S(=O)(=O)N3CCCNCC3C)c12 (racemic) [Compound YK1607] has what IC50 at 24 h?
Output: 139

Task: Recorded IC50 at 24 h of C[C@@H]1CNCCCN1S(=O)(=O)c1cccc2c(O)ncc(Cl)c12 [Compound R-YK1606] , please.
Output: 181

Task: Record request: IC50 at 24 h value, item CC(C)[C@@H]1CNCCCN1S(=O)(=O)c1cccc2c(O)nccc12 [Compound R-YK1609]
Output: 327

Task: Item CC1CNCCCN1S(=O)(=O)c1cccc2c(O)ncc(F)c12 (racemic) [Compound YK1604] has what recorded IC50 at 24 h?
Output: 130

Task: What value of measured IC50 at 24 h is listed for CCCCC1CNCCCN1S(=O)(=O)c1cccc2c(O)nccc12 (racemic) [Compound YK1611] ?
Output: 184
